Target: Human IDO1 (Homo sapiens, UniProt P14902)
Construct: expressed in transfected cells; host or cells: HEK293
Sequence (P14902 whole entry): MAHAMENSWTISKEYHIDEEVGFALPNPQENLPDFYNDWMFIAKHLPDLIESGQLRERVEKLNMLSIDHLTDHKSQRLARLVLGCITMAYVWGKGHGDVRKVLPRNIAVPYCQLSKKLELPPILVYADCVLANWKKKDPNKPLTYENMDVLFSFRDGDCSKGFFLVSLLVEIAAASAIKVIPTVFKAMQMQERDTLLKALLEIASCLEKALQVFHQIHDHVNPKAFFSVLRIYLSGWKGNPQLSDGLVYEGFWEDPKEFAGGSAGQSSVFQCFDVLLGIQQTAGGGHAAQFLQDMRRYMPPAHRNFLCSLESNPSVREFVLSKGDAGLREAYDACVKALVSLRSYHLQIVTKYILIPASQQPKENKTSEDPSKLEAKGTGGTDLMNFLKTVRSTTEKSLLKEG
Assay: IDO Kynurenine Assay with Human IDO1/HEK293 Cells
Format: cell-based
Conditions: read-out: HEK human IDO-1 (IC50)
pIC50: −log10 of the molar value.
Value type: pIC50

Provide pIC50 value for the following compound: O=C(Nc1ccc(C2CC2)cc1)Nc1cc(-c2ccccc2-c2nnn[nH]2)ccc1N(CCCC(F)(F)F)Cc1ccc(Cl)cc1
6.89

1 = Cc1ncc(NC(=O)Nc2cc(-c3cc(F)ccc3C(=O)O)c(F)cc2N(CC(C)C)C2C[C@H]3CC[C@@H]2C3)cn1 (stereo partly shown)
2 = [2H]C([2H])(C(C)C)N(c1ccc(-c2ccccc2-c2nnn[nH]2)cc1NC(=O)Nc1ccc(C)cc1)C([2H])([2H])C(C)C
Lab note: record which item had the higher pIC50, 1 or 2 . Indicate which entry you chose by stating its label.
2
(2: 8.28, 1: 5.71)

These data points were gathered from patent US9758492B2.
